EXPERIMENTAL PROTOCOL: In vivo pharmacokinetic test, drug concentration in blood plasma by LC-MS/MS
Set-up: species or system SD rats
MEASUREMENT SETUP: male, SD, rat, plasma, iv, 1 mg/kg, SD rats, intravenous 1 mg/kg, 0.5 h, animal 103M
READOUT: concentration at 0.5 h (ng/mL)
// units = ng/mL; emit number, no label

Ask | Fill in: concentration at 0.5 h of CCOc1cccc(Nc2nn(C)c3c2Cc2cc(OCC)c(OCC(N)=O)cc2-3)c1 [LL-01] is ___
Reply | 1720

====

EXPERIMENTAL PROTOCOL: In vivo pharmacokinetic test, drug concentration in blood plasma by LC-MS/MS
Parameters: species or system SD rats
MEASUREMENT SETUP: male, SD, rat, plasma, iv, 1 mg/kg, male SD rats, single intravenous 1 mg/kg, animal 103M; read-out: Vz—pred
READOUT: Vd (L/kg)
# output: bare number, implied unit L/kg

Ask | May I ask what Vd has been recorded for `CCOc1cccc(Nc2nn(C)c3c2Cc2cc(OCC)c(OCC(N)=O)cc2-3)c1` ?
Reply | 0.41

Source listed as patent US10059674B2.
